TEST PROTOCOL: qHTS Assay for Lipid Storage Modulators (AID 1519)
EXPERIMENTAL CONTEXT: Drosophila S3 cells, BODIPY lipid droplet/cell ratio, laser cytometry; measured here: cell count channel max response; cells loaded with oleic acid
Records with an inconclusive call do not appear.
VALUE TYPE: max response (%)
Report the value in % with no unit label.

Answered cases to consult:
CN(C)Cc1ccccc1-c1cc(Nc2ccccc2)ncn1 : 5.64
O=c1c(-c2ccccc2)nc2cnc(Nc3ccccc3)nc2n1Cc1cccs1 : 8.31
COCC(=O)N1CCC2(CC1)CCN(c1ccccn1)CC2 : 0.785

Returns the measured max response for the input compound. Input: COCC(=O)N1CCC[C@@]2(CCN(Cc3ccccc3)C2)C1
6.62

Fill in the blank: the reported max response of COc1ccccc1CNc1ncncc1-c1ccoc1 is ____.
-3.49
